Ref: ChEMBL document CHEMBL1147989

- System name: Kappa-type opioid receptor (Homo sapiens)
- Sequence (P41145 whole entry): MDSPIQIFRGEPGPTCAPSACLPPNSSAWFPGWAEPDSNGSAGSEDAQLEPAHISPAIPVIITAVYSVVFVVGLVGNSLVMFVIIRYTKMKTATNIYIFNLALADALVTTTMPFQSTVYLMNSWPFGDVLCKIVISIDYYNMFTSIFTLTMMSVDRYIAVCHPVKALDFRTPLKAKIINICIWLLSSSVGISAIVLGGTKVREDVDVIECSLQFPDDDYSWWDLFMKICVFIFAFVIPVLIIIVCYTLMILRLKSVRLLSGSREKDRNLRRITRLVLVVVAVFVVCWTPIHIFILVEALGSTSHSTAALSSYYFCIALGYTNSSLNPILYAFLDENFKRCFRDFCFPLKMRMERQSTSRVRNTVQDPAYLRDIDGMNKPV
- Method summary: Displacement of [3H]diprenorphine from human KOP receptor expressed in CHO cell membrane
- Type: cell membranes
Kindly supply the reported log10 of Ki values for the records listed here.
Scale type: logarithmic (base 10). Underlying Ki unit: nM.

Recorded results for 3 compounds are shown here.
CC(C)S(=O)(=O)N1CCN(Cc2ccccc2C2(O)CCN(C(c3ccccc3Cl)c3ccccc3Cl)CC2)CC1	2.27
OC1(C2CCCCC2)CCN(C(c2ccccc2)c2ccccc2)CC1	2.59
NCc1ccccc1C1(O)CCN(C(c2ccccc2Cl)c2ccccc2Cl)CC1	2.87

Record log10 of Ki for all entries; do not skip any.
1. CCCCCC(c1ccccc1)N1CCC(O)(c2ccccc2CN)CC1 (stereo not given)
2. COc1ccc(C2(O)CCN(C(c3ccccc3)c3ccccc3)CC2)cc1

[1.48, 4.01]

---

Answer each item with its documented Activity.
- System name: Nociceptin receptor (Homo sapiens)
- Sequence (P41146 whole entry): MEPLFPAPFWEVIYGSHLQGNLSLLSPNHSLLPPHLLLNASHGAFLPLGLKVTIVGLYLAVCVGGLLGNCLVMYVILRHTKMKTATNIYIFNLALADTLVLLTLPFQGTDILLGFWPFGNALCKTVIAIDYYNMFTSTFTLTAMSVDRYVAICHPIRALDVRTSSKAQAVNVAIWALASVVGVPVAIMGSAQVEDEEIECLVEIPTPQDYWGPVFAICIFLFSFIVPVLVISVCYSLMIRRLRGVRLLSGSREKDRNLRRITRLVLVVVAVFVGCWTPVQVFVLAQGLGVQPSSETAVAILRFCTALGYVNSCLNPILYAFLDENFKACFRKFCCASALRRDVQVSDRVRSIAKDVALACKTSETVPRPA
- Method summary: Agonist activity at human NOP receptor transfected in CHO cells assessed as stimulation of [35S]GTPgammaS at 1 uM
- Format: functional, cell-based
Field: value (include unit after the number)

Cc1ccccc1C(c1ccccc1C)N1CCC(O)(c2ccccc2CN)CC1	94%
NCc1ccccc1C1(O)CCN(C(c2ccccc2Cl)c2ccccc2Cl)CC1	102%
NCc1ccccc1C1(O)CCN(C(c2ccccc2)c2ccccc2Br)CC1 (centres undefined)	115%

--- query ---
Dear colleague, I am looking for the recorded Activity of the following molecule: "NCc1ccccc1C1(O)CCN(C(c2ccccc2Br)c2ccccc2Br)CC1"
104%

---

Exercise: for every item that follows, state its recorded Ki.
- System name: Kappa-type opioid receptor (Homo sapiens)
- Method summary: Displacement of [3H]diprenorphine from human KOP receptor expressed in CHO cell membrane
- Assay type: cell membranes

Here are 3 compounds together with their reported answers.
Cc1cccc(C2(O)CCN(C(c3ccccc3)c3ccccc3)CC2)c1	1150 nM
OC1(c2ccc(F)cc2)CCN(C(c2ccccc2)c2ccccc2)CC1	759 nM
CC(C)(C)C1(O)CCN(C(c2ccccc2)c2ccccc2)CC1	1070 nM

Could you now consider this next compound?
Quick one: Ki for "OC1(Cc2ccccc2)CCN(C(c2ccccc2)c2ccccc2)CC1" ?
1440 nM

---

Field: pKi. Provide a value for each of the compounds that follow.
- System name: Mu-type opioid receptor (Homo sapiens, UniProt P35372)
- Sequence (P35372 whole entry): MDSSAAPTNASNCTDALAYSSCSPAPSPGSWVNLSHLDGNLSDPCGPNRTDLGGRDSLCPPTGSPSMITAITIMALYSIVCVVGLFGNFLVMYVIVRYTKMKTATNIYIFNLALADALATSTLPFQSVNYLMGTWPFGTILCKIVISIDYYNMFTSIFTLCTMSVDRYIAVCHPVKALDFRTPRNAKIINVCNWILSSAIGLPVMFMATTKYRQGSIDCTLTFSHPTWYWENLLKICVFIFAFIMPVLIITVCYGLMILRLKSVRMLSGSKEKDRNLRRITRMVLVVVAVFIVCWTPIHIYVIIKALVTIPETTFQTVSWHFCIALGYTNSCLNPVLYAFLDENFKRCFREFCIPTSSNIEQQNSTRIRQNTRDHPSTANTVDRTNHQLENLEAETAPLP
- Method summary: Displacement of [3H]diprenorphine from human MOP receptor expressed in CHO cell membrane
- Type: cell membranes
Give bare numbers, as −log10 of the molar value.

OC1(c2ccc(F)cc2)CCN(C(c2ccccc2)c2ccccc2)CC1	6.11
COc1ccccc1C1(O)CCN(C(c2ccccc2)c2ccccc2)CC1	6.01

Switching to the query record.
Query: pKi; subject: "OC1(c2ccc(Br)cc2)CCN(C(c2ccccc2)c2ccccc2)CC1"
5.98
